Molecular target: T1, BsaWI K85A (UniProt Q6UQ65 1-272, K85A)
T1 sequence: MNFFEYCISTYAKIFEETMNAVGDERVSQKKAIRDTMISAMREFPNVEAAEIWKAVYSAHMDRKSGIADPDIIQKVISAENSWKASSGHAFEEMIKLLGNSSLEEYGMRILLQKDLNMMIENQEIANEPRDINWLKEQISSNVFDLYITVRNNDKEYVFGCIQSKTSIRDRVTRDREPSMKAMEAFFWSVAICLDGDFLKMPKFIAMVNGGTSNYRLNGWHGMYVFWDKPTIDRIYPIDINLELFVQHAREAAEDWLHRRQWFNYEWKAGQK
Assay: EMSA; 5 mM Ca2+; EMSA: 40 mM Tris-acetate pH 8.3, 0.1 mg/ml BSA, 10% glycerol, 5 mM CaCl2 or 0.1 mM EDTA, 1 nM DNA, room temperature, 15 min
Settings: protein: recombinant; chain copies: 4; label: 33P; blunt
measure: pKd
Numbers only, as −log10 of the molar value.

In one line, give reported pKd of the entry SP (dsDNA) DNA 1: GCCTTTCGGTTTACCGGTGTCATTCCGCTG DNA 2: CAGCGGAATGACACCGGTAAACCGAAAGGC .
6.64
